# System: NCI-H1299
# EXPERIMENTAL DETAILS: Antiproliferative activity against human H1299 cells assessed as inhibition of cell viability at 10 uM after 72 hrs by CCK-8 assay relative to control
# Assay type: functional
# MEASUREMENT CONTEXT: NCI-H1299, 72 h
Decide by inhibition at 10 µM: equal to or exceeding 80% means Yes, less means No.

>>> classification("CN(C)C(=O)c1cc2cnc(Nc3ccc(C(=O)NCCCCN=C=S)cc3)nc2n1C1CCCC1")
"No"
>>> classification("CN(C)C(=O)c1cc2cnc(Nc3ccc(C(=O)NCCCCCCN=C=S)cc3F)nc2n1C1CCCC1")
"No"
>>> classification("CN(C)C(=O)c1cc2cnc(Nc3ccc(S(=O)(=O)NCCCCCN=C=S)cc3)nc2n1C1CCCC1")
"Yes"
>>> classification("CN(C)C(=O)c1cc2cnc(Nc3ccc(C(=O)NCCCCCCN=C=S)cc3)nc2n1C1CCCC1")
"Yes"
>>> classification("CN(C)C(=O)c1cc2cnc(Nc3cccc(NC(=O)CCCCCCCN=C=S)c3)nc2n1C1CCCC1")
"Yes"
>>> classification("CN(C)C(=O)c1cc2cnc(Nc3ccc(N=C=S)cc3)nc2n1C1CCCC1")
"Yes"

* * *

# EXPERIMENTAL DETAILS: Half life in Sprague-Dawley rat liver microsomes at 2 uM in presence of NADPH measured up to 1 hr by HPLC analysis
# Assay type: ADME, Microsome
REPORTED METRIC: half-life at 2 µM (min)

>>> result_number("CN(C)C(=O)c1cc2cnc(Nc3ccc(NC(=O)CCCCCCCN=C=S)cc3)nc2n1C1CCCC1")
40.8

* * *

# SYSTEM TESTED: CDK4/Cyclin D3 (Homo sapiens) (UniProt P11802+P30281)
# EXPERIMENTAL DETAILS: Inhibition of recombinant full-length human CDK4/cyclinD3 at 1 uM using Rb fragment as substrate measured after 40 mins in presence of [gamma33P]ATP by scintillation counting method relative to control
# Assay type: protein-complex assay
Decide by inhibition: equal to or exceeding 90% means label 1, less means label 0.

>>> classification("CN(C)C(=O)c1cc2cnc(Nc3ccc(C(=O)NCCCCN=C=S)cn3)nc2n1C1CCCC1")
"label 1"
>>> classification("CN(C)C(=O)c1cc2cnc(Nc3ccc(C(=O)NCCCCCN=C=S)cc3)nc2n1C1CCCC1")
"label 1"
>>> classification("CN(C)C(=O)c1cc2cnc(Nc3ccc(C(=O)NCCCCCN=C=S)cc3F)nc2n1C1CCCC1")
"label 0"
>>> classification("CN(C)C(=O)c1cc2cnc(NNC(=O)CCCCCCCN=C=S)nc2n1C1CCCC1")
"label 0"
>>> classification("CN(C)C(=O)c1cc2cnc(Nc3cccc(NC(=O)CCCCCCCN=C=S)c3)nc2n1C1CCCC1")
"label 0"
>>> classification("CN(C)C(=O)c1cc2cnc(Nc3ccc(N=C=S)cc3)nc2n1C1CCCC1")
"label 1"
>>> classification("CN(C)C(=O)c1cc2cnc(Nc3ccc(NC(=O)CCCN=C=S)cc3)nc2n1C1CCCC1")
"label 1"

* * *

Recorded inhibition for the following molecules
# SYSTEM TESTED: CDK6/cyclin D3 (Homo sapiens) (UniProt P30281+Q00534)
# EXPERIMENTAL DETAILS: Inhibition of recombinant full-length human CDK6/cyclinD3 at 1 uM using histone H1 as substrate measured after 40 mins in presence of [gamma33P]ATP by scintillation counting method relative to control
# Type: protein-complex assay
REPORTED METRIC: inhibition

>>> result("CN(C)C(=O)c1cc2cnc(Nc3ccc(C(=O)NCCCCCCCN=C=S)cc3F)nc2n1C1CCCC1")
"52%"
>>> result("CN(C)C(=O)c1cc2cnc(Nc3ccc(NC(=O)CCCN=C=S)cc3)nc2n1C1CCCC1")
"93%"
>>> result("CN(C)C(=O)c1cc2cnc(Nc3cccc(NC(=O)CCCCCCCN=C=S)c3)nc2n1C1CCCC1")
"74%"
>>> result("CN(C)C(=O)c1cc2cnc(Nc3ccc(C(=O)NCCCN=C=S)cn3)nc2n1C1CCCC1")
"89%"
>>> result("CN(C)C(=O)c1cc2cnc(Nc3ccc(C(=O)NCCCN=C=S)cc3O)nc2n1C1CCCC1")
"68%"
>>> result("CN(C)C(=O)c1cc2cnc(Nc3ccc(N4CCN(C(=O)CCCCCCCN=C=S)CC4)cn3)nc2n1C1CCCC1")
"93%"
>>> result("CN(C)C(=O)c1cc2cnc(Nc3ccc(C(=O)NCCCCCCN=C=S)cc3O)nc2n1C1CCCC1")
"47%"
>>> result("CN(C)C(=O)c1cc2cnc(Nc3ccc(CNC(=O)CCCCCCCN=C=S)cc3)nc2n1C1CCCC1")
"81%"
>>> result("CN(C)C(=O)c1cc2cnc(Nc3ccc(S(=O)(=O)NCCCCN=C=S)cc3)nc2n1C1CCCC1")
"92%"

* * *

# Test system: PC-9
# EXPERIMENTAL DETAILS: Antiproliferative activity against human PC9 cells assessed as inhibition of cell viability after 72 hrs by CCK-8 assay
# Type: functional, cell-based
# MEASUREMENT CONTEXT: PC-9, 72 h
pIC50: −log10 of the molar value.
Recorded pIC50 for the following molecules
REPORTED METRIC: pIC50

>>> result_number("CN(C)C(=O)c1cc2cnc(Nc3ccc(NC(=O)CCCCCCCN=C=S)cc3)nc2n1C1CCCC1")
6.02
>>> result_number("CN(C)C(=O)c1cc2cnc(Nc3ccc(N4CCNCC4)cn3)nc2n1C1CCCC1")
5.27
>>> result_number("C[S+]([O-])CCCCN=C=S (stereo not drawn)")
5.20

* * *

# SYSTEM TESTED: CDK4/Cyclin D3 (Homo sapiens) (UniProt P11802+P30281)
# EXPERIMENTAL DETAILS: Inhibition of recombinant full-length human CDK4/cyclinD3 at 500 nM using Rb fragment as substrate measured after 40 mins in presence of [gamma33P]ATP by scintillation counting method relative to control
# Format: protein-complex assay
REPORTED METRIC: inhibition

>>> result("CN(C)C(=O)c1cc2cnc(Nc3ccc(C(=O)NCCCCCCCN=C=S)cc3)nc2n1C1CCCC1")
"74%"
>>> result("CN(C)C(=O)c1cc2cnc(Nc3ccc(C(=O)NCCCCCN=C=S)cc3)nc2n1C1CCCC1")
"101%"
>>> result("CN(C)C(=O)c1cc2cnc(Nc3ccc(NC(=O)CCCCCCCN=C=S)cc3)nc2n1C1CCCC1")
"75%"
>>> result("CN(C)C(=O)c1cc2cnc(Nc3ccc(C(=O)NCCCCCCN=C=S)cc3)nc2n1C1CCCC1")
"101%"
>>> result("CN(C)C(=O)c1cc2cnc(Nc3ccc(C(=O)NCCCCCCCN=C=S)cn3)nc2n1C1CCCC1")
"91%"

* * *

# SYSTEM TESTED: CDK9/cyclin T1 (Homo sapiens, UniProt P50750)
# Sequence (O60563 whole entry): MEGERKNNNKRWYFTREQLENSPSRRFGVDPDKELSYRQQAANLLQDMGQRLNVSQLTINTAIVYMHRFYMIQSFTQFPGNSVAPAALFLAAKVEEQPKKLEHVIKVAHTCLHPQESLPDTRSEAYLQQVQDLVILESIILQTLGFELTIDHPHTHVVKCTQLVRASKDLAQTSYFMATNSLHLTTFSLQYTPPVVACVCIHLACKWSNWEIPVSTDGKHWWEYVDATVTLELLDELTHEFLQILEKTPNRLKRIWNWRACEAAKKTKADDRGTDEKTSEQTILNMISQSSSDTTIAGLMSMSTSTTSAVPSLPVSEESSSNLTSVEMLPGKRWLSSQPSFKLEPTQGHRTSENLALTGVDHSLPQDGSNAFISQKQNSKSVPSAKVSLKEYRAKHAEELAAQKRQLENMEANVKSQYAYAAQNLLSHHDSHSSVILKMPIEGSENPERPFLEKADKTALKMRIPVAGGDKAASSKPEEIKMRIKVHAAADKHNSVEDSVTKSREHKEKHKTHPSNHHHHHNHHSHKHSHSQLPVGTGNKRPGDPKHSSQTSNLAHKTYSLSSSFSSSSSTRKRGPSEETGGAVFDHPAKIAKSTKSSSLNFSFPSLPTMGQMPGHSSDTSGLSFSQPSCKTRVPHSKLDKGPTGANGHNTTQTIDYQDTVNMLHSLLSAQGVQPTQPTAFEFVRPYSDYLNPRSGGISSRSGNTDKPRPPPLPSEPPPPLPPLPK
# Sequence (P50750 whole entry): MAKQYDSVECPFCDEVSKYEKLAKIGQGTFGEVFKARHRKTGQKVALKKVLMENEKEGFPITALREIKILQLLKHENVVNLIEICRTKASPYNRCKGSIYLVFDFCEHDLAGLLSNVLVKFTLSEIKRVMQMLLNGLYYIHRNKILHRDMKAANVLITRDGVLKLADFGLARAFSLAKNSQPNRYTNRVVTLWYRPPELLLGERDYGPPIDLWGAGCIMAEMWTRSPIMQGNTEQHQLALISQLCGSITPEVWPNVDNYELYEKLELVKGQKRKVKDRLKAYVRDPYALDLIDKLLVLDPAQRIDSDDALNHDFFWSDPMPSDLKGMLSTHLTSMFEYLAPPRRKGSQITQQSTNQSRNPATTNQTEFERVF
# EXPERIMENTAL DETAILS: Inhibition of recombinant full-length human CDK9/cyclinT1 using KTFCGTPEYLAPEVRREPRILSEEEQEMFRDFDYIADWC peptide as substrate measured after 40 mins in presence of [gamma33P]ATP by scintillation counting method
With a cut-off of 20 nM, any IC50 strictly below it is called rule met; any IC50 meeting it or above is called rule not met.

>>> classification("CN(C)C(=O)c1cc2cnc(Nc3ccc(NC(=O)CCCCCCCN=C=S)cc3F)nc2n1C1CCCC1")
"rule not met"
>>> classification("CN(C)C(=O)c1cc2cnc(Nc3ccc(C(=O)NCCCCCCN=C=S)cc3F)nc2n1C1CCCC1")
"rule not met"
>>> classification("CN(C)C(=O)c1cc2cnc(Nc3ccc(C(=O)NCCCCN=C=S)cc3O)nc2n1C1CCCC1")
"rule not met"
>>> classification("CN(C)C(=O)c1cc2cnc(Nc3cccc(NC(=O)CCCCCCCN=C=S)c3)nc2n1C1CCCC1")
"rule met"
>>> classification("CN(C)C(=O)c1cc2cnc(Nc3ccc(NC(=O)CCCCCCCN=C=S)cc3)nc2n1C1CCCC1")
"rule met"

* * *

# SYSTEM TESTED: CDK6/cyclin D3 (Homo sapiens) (UniProt P30281+Q00534)
# EXPERIMENTAL DETAILS: Inhibition of recombinant full-length human CDK6/cyclinD3 at 1 uM using histone H1 as substrate measured after 40 mins in presence of [gamma33P]ATP by scintillation counting method relative to control
# Format: protein-complex assay
Recorded inhibition for the following compounds
REPORTED METRIC: inhibition (%)

>>> result_number("CN(C)C(=O)c1cc2cnc(Nc3ccc(NC(=O)CCCCCCN=C=S)cc3)nc2n1C1CCCC1")
86
>>> result_number("CN(C)C(=O)c1cc2cnc(Nc3ccc(C(=O)NCCCCCN=C=S)cn3)nc2n1C1CCCC1")
87
>>> result_number("CN(C)C(=O)c1cc2cnc(Nc3ccc(C(=O)NCCCCN=C=S)cc3)nc2n1C1CCCC1")
93
>>> result_number("CN(C)C(=O)c1cc2cnc(Nc3ccc(NC(=O)CCCCCCCN=C=S)c(F)c3)nc2n1C1CCCC1")
69
>>> result_number("CN(C)C(=O)c1cc2cnc(Nc3ccc(C(=O)NCCCCN=C=S)cc3F)nc2n1C1CCCC1")
86
>>> result_number("CN(C)C(=O)c1cc2cnc(Nc3ccc(C(=O)NCCCCCN=C=S)cc3F)nc2n1C1CCCC1")
81
>>> result_number("CN(C)C(=O)c1cc2cnc(Nc3ccc(C(=O)NCCCN=C=S)cc3)nc2n1C1CCCC1")
94
>>> result_number("CN(C)C(=O)c1cc2cnc(Nc3ccc(C(=O)NCCCCCCN=C=S)cc3F)nc2n1C1CCCC1")
78
>>> result_number("O=C(CCCCCCCN=C=S)Nc1ccc(Nc2ncc3nnn(C4CCCC4)c3n2)cc1")
42
